- assay_system: Androgen receptor (Homo sapiens) (UniProt P10275)
- Sequence (P10275 whole entry, looked up): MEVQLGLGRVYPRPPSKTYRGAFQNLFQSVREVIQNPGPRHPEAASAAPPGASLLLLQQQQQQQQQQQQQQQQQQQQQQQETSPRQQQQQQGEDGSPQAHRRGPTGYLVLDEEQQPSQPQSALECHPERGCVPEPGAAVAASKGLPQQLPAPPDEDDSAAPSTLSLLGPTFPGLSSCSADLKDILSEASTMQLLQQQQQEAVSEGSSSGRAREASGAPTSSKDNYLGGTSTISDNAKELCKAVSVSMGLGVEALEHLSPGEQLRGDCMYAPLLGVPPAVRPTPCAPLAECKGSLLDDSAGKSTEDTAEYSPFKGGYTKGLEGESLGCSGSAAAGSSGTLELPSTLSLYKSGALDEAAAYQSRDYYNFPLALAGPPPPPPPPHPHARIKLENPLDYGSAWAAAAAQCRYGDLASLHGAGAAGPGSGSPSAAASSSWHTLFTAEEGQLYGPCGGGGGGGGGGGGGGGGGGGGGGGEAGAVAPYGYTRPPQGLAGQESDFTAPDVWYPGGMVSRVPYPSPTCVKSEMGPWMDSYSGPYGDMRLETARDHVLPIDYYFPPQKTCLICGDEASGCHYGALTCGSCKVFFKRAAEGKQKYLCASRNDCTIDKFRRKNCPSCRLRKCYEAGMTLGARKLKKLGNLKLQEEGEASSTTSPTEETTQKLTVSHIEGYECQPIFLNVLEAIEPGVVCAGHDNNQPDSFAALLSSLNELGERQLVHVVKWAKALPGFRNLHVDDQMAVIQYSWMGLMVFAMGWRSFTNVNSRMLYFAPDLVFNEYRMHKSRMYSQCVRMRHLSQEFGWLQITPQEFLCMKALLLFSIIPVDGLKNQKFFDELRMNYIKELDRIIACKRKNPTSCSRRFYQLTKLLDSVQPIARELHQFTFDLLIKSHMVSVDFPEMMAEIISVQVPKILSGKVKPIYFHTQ
- protocol: qHTS assay to identify small molecule agonists of the androgen receptor (AR) signaling pathway in the presence of an antagonist (AID 1259381); further: nearly all actives have a fitted effect of over 15% in size
- conditions: MDA-kb2 MMTV-luciferase, AR agonist + nilutamide, 16 h; series mostly up to 42.5 µM
The source made the active and inactive calls. The call rests on the fitted dose curve.
Classes used: label 1 = active, label 0 = inactive

compound	assay_system	category
CCCCc1ccc2cccc(S(=O)(=O)O)c2c1	Androgen receptor (Homo sapiens) (UniProt P10275)	label 0
COc1cccc(Br)c1	Androgen receptor (Homo sapiens) (UniProt P10275)	label 0
O=C(CCOCCOCCOCCOCCC(=O)Nc1c(I)cc(I)c(C(=O)O)c1I)Nc1c(I)cc(I)c(C(=O)O)c1I	Androgen receptor (Homo sapiens) (UniProt P10275)	label 0
CN1[C@@H]2CC[C@H]1CC(NC(=O)n1c(=O)[nH]c3ccccc31)C2 (stereo not given in full)	Androgen receptor (Homo sapiens) (UniProt P10275)	label 0
CCCC(=O)O[C@]1(C(=O)CCl)[C@@H](C)C[C@H]2[C@@H]3CCC4=CC(=O)C=C[C@]4(C)[C@@]3(F)C(=O)C[C@@]21C	Androgen receptor (Homo sapiens) (UniProt P10275)	label 1
C1COCCO1	Androgen receptor (Homo sapiens) (UniProt P10275)	label 0
C=CCn1c(=O)n([C@@H]2O[C@H](CO)[C@@H](O)[C@H]2O)c2nc(N)[nH]c(=O)c21	Androgen receptor (Homo sapiens) (UniProt P10275)	label 0
O=S(=O)(O)c1ccccc1O	Androgen receptor (Homo sapiens) (UniProt P10275)	label 0
C#CC(O)C(CC)CCCC (stereo not given)	Androgen receptor (Homo sapiens) (UniProt P10275)	label 0
CCCCCCCCN(C)CCCCCCCC	Androgen receptor (Homo sapiens) (UniProt P10275)	label 0
O=C(O)c1ccc[n+]([O-])c1	Androgen receptor (Homo sapiens) (UniProt P10275)	label 0
CCN1CCN(c2cc3c(cc2F)c(=O)c(C(=O)O)cn3C2CC2)CC1	Androgen receptor (Homo sapiens) (UniProt P10275)	label 0
COc1cc(CCC(C)=O)ccc1O	Androgen receptor (Homo sapiens) (UniProt P10275)	label 0
Cc1ncc(CSSCc2cnc(C)c(O)c2CO)c(CO)c1O	Androgen receptor (Homo sapiens) (UniProt P10275)	label 0
CC1(C)SC(C)(C)SC(C)(C)S1	Androgen receptor (Homo sapiens) (UniProt P10275)	label 0
CCCCCN(CCCCC)C(=O)C(CCC(=O)O)NC(=O)c1ccc(Cl)c(Cl)c1 (stereo not given)	Androgen receptor (Homo sapiens) (UniProt P10275)	label 0
O=c1[nH]c(=O)n([C@H]2O[C@H](CO)[C@@H](O)[C@@H]2O)cc1/C=C\Br	Androgen receptor (Homo sapiens) (UniProt P10275)	label 0
Cc1ccc(N)cc1[N+](=O)[O-]	Androgen receptor (Homo sapiens) (UniProt P10275)	label 0
NC(N)=NS(=O)(=O)c1ccc(N)cc1	Androgen receptor (Homo sapiens) (UniProt P10275)	label 0
O=c1[nH]c2ccccc2c(=O)n1CCCl	Androgen receptor (Homo sapiens) (UniProt P10275)	label 0

====

- protocol: qHTS assay to identify small molecule agonists of the AP-1 signaling pathway - cell viability counter screen (AID 1159525); further: nearly all actives have a fitted effect of over 55% in size
- conditions: ME-180 (cervical carcinoma) AP-1-bla cells viability, ATP luminescence, 5 h; series mostly up to 76.8 µM
Records with an inconclusive call do not appear. The source made the active and inactive calls. Calls come from the whole dose curve.
measured_property: viability change, negative = cytotoxic

molecule	measured_property	measured
CCCCc1ccc(N)cc1	viability change, negative = cytotoxic	inactive
CN1[C@@H]2CC[C@H]1CC(NC(=O)n1c(=O)[nH]c3ccccc31)C2 (stereo not given in full)	viability change, negative = cytotoxic	inactive
CCC(C(=O)NC(N)=O)c1ccccc1 (stereo not given)	viability change, negative = cytotoxic	inactive
FC(F)(F)C(F)(F)C(F)(F)C(F)(F)C(F)(F)C(F)(F)C(F)(F)C(F)(F)C(F)(F)C(F)(F)F	viability change, negative = cytotoxic	-11.9% [at 6.97 µM] (inactive)
CC1CCN(CCCC(=O)c2ccc(F)cc2)CC1	viability change, negative = cytotoxic	inactive

====

- protocol: qHTS assay for small molecules that induce genotoxicity in human embryonic kidney cells expressing luciferase-tagged ATAD5 (AID 651632); further: on the % scale 0 is the no-effect control and ±100 the full control effect; nearly all actives have a fitted effect of over 15% in size
- conditions: HEK293T ATAD5-luciferase induction, 16 h; series mostly up to 83.3 µM
Results filed as inconclusive are left out. Calls of active or inactive are those of the source. Calls follow the shape of the dose curve; as a rule, active = well fitted activation curve with a large enough effect in the repeat runs; inconclusive = weak or mixed curves; inactive = no such curve, though single readings can be large or run the other way.

sample_smiles	outcome
CCCCCC[C@@H](CCC)C(=O)O	inactive
O=C(O)c1ccccc1S	inactive
Nc1cc(C(Cl)=C(Cl)Cl)c(S(N)(=O)=O)cc1S(N)(=O)=O	inactive

====

- assay_system: Thyrotropin receptor (Homo sapiens)
- protocol: qHTS assay to identify small molecule antagonists of the thyroid stimulating hormone receptor (TSHR) signaling pathway (AID 1259385); further: on the % scale 0 is the no-effect control and ±100 the full control effect; nearly all actives have a fitted effect of over 20% in size
- conditions: TSHR-HEK293 cAMP HTRF, TSH-stimulated antagonist mode; series mostly up to 92.4 µM
- Description: U.S. Tox21 Program National Center for Advancing Translational Sciences [NCATS] NIH Chemical Genomics Center [NCGC] U.S. Environmental Protection Agency [EPA] National Institutes of Environmental Health Sciences [NIEHS] National Toxicology Program [NTP] […] Tox21 Assay Protocol Summary: TSHR-Hek293 cells were dispensed at 800 cells/4uL/well in 1536-well white plates using a Multidrop dispenser. […] The fluorescence intensity in the plates was measured using an Envision plate reader. […]
Records with an inconclusive call do not appear. Activity calls are given as the source filed them. Calls follow the shape of the full dose curve.
measured_property: activity change, negative = inhibition

compound	measured_property	measured
O=[N+]([O-])c1ccc(CCO)cc1	activity change, negative = inhibition	inactive
CCN1CCCC1CNC(=O)c1cc(S(N)(=O)=O)ccc1OC (stereo not drawn)	activity change, negative = inhibition	inactive
COc1ccc(COC=O)cc1	activity change, negative = inhibition	inactive

====

- assay_system: Peroxisome proliferator-activated receptor gamma (Homo sapiens) (UniProt P37231)
- Sequence (P37231 whole entry, looked up): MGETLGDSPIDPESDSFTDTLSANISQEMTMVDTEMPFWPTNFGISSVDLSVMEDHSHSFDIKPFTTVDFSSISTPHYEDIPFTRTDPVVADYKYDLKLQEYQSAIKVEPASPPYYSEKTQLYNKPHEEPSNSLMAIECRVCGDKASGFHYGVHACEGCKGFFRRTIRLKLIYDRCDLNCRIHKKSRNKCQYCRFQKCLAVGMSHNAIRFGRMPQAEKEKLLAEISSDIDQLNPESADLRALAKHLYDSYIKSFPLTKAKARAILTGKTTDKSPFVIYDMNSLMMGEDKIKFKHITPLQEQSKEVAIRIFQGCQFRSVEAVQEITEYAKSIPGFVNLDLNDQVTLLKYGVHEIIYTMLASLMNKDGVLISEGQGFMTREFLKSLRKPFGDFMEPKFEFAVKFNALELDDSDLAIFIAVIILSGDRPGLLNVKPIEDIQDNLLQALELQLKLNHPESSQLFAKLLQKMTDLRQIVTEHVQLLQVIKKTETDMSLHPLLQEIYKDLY
- protocol: qHTS assay to identify small molecule agonists of the peroxisome proliferator-activated receptor gamma (PPARg) signaling pathway (AID 743094); further: on the % scale 0 is the no-effect control and ±100 the full control effect
- conditions: HEK293H PPARg-UAS-bla, beta-lactamase FRET ratio, 17 h; series mostly up to 57 µM
Inconclusive results are not listed. Calls of active or inactive are those of the source. Calls follow the shape of the dose curve; as a rule, active = well fitted activation curve with a large enough effect in the signal ratio in the repeat runs (not every such curve was filed as active); inconclusive = weak or mixed curves, or effect the other way; inactive = no such curve, though single readings can be large or run the other way; the % refers to the signal ratio.

sample_smiles	assay_system	activation
CN(C)CCn1nnnc1SCC1=C(C(=O)O)N2C(=O)[C@@H](NC(=O)Cc3csc(N)n3)[C@H]2SC1	Peroxisome proliferator-activated receptor gamma (Homo sapiens) (UniProt P37231)	inactive
C[C@H](O)C(=O)Nc1c(I)c(C(=O)NC(CO)CO)c(I)c(C(=O)NC(CO)CO)c1I	Peroxisome proliferator-activated receptor gamma (Homo sapiens) (UniProt P37231)	inactive
CC(C)CCCCCCN	Peroxisome proliferator-activated receptor gamma (Homo sapiens) (UniProt P37231)	inactive
CCN1CCN(c2cc3c(cc2F)c(=O)c(C(=O)O)cn3C2CC2)CC1	Peroxisome proliferator-activated receptor gamma (Homo sapiens) (UniProt P37231)	inactive
CC(C)c1cccc(O)c1	Peroxisome proliferator-activated receptor gamma (Homo sapiens) (UniProt P37231)	inactive
CC(C)N1C(=O)c2ccccc2C1=O	Peroxisome proliferator-activated receptor gamma (Homo sapiens) (UniProt P37231)	inactive

====

- assay_system: Cytochrome P450 1A2 (Homo sapiens) (UniProt P05177)
- Sequence (P05177 whole entry, looked up): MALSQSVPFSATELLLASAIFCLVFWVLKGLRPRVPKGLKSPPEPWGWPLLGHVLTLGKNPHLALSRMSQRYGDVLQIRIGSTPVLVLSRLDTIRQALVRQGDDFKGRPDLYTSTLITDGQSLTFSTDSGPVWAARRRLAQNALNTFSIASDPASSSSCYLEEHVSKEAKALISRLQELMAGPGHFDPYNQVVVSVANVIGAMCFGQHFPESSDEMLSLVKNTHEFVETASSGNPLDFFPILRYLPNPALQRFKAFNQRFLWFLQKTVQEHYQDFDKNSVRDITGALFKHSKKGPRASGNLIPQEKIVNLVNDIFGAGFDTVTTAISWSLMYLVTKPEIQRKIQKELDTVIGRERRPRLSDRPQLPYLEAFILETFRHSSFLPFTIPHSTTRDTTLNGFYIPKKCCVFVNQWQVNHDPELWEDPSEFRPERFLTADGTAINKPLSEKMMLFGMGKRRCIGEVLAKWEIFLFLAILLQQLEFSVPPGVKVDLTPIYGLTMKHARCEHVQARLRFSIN
- protocol: Cytochrome P450 Family 1 Subfamily A Member 2 (CYP1A2) small molecule antagonists: luciferase reporter qHTS assay (AID 1671199); further: nearly all actives have a fitted effect of over 50% in size; further: potency means the concentration at half of the fitted maximal effect
- conditions: P450-Glo CYP1A2 enzyme, luciferin luminescence, 1 h; series mostly up to 53 µM
Results filed as inconclusive are left out. Calls of active or inactive are those of the source. Calls follow the shape of the dose curve; as a rule, active = well fitted inhibition curve with a large enough effect in the repeat runs; inconclusive = weak or mixed curves; inactive = no such curve, though single readings can be large or run the other way.

molecule	Potency
NC(N)=NS(=O)(=O)c1ccc(N)cc1	inactive
NS(=O)(=O)c1cc2c(cc1C(F)(F)F)NC(Cc1ccccc1)NS2(=O)=O (configuration not stated)	inactive
c1ccc(SCCSc2ccccc2)cc1	31.4 µM (active)
CC1=CC(C)C(C=O)C(C)C1 (configuration not stated)	inactive
CCCCc1ccc(N)cc1	35.6 µM (active)
CCCCN(CCO)CCO	inactive
O=C(O)/C=C/c1ccc(/C=C/C(=O)O)cc1	inactive

====

- protocol: qHTS assay to identify small molecule agonists of the estrogen related receptor signaling pathway with the pleiotropic PPARgamma coactivator (PGC) from Tox21 10K library (AID 1224842); further: nearly all actives have a fitted effect of over 15% in size; on activation: on the % scale 0 is the no-effect control and ±100 the full control effect
- conditions: PGC/ERR reporter cell line, luciferase ONE-Glo, 18 h; series mostly up to 92.4 µM
Inconclusive results are not listed. Calls of active or inactive are those of the source. Calls come from the whole dose curve; as a rule, active = well fitted activation curve with a large enough effect in the repeat runs; inconclusive = weak or mixed curves, or effect the other way; inactive = no such curve, though single readings can be large or run the other way.
Classes used: yes = active, no = inactive

molecule	category
CC12CCC(CC1=O)C2(C)C (stereo unspecified)	no
Cc1ncc(CSSCc2cnc(C)c(O)c2CO)c(CO)c1O	no
COC(=O)CCCCCCCCC(=O)OC	no
CCOC(=O)[C@H](CCc1ccccc1)N[C@@H](C)C(=O)N1CCC[C@H]1C(=O)O	no
CCC(=O)Nc1cccc(N)c1	no
Nc1ccn(C2CO[C@H](CO)O2)c(=O)n1 (stereo partly specified)	no
CN(C)N=Nc1ccccc1	no
O=c1[nH]c2ccccc2c(=O)n1CCCl	no
CCCCCCCCCCCl	no
CCC(=O)/C=C/c1ccc(OC)cc1	no
CCC(C)OC(=O)N1CCCCC1CCO (stereo unspecified)	no
CC(C)c1cccc(O)c1	no
CC1CCN(CCCC(=O)c2ccc(F)cc2)CC1	no
Cc1c(C)n(CCN(C)C)c2ccc(C(=O)OCCN(C)C)cc12	no
c1ccc2cnncc2c1	no
Cc1nc(-c2ccc(OCC(C)C)c(C#N)c2)sc1C(=O)O	yes
